# assay.target: Neprilysin (Homo sapiens, UniProt P08473)
# Sequence (P08473 whole entry): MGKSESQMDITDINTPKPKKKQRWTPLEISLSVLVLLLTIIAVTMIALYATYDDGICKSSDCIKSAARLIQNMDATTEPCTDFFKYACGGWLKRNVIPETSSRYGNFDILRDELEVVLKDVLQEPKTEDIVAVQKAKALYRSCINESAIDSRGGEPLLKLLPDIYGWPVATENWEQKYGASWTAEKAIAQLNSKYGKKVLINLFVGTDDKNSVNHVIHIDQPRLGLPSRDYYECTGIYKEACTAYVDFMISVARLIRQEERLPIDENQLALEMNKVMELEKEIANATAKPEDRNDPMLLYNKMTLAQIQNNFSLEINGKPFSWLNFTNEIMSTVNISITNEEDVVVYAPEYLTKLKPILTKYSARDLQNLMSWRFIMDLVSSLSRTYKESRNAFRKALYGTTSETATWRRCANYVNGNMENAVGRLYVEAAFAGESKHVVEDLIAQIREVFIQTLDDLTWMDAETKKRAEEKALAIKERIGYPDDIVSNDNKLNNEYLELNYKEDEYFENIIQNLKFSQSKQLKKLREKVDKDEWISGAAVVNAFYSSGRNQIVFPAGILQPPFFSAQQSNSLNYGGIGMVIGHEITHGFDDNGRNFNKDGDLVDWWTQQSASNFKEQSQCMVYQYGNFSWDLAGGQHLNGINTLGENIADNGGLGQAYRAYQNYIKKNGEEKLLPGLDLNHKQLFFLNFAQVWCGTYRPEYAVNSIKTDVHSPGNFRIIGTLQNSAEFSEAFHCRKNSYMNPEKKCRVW
# test.details: Drug metabolism assessed as recombinant human NEP-medited peptide proteolysis at 1 mM up to 72 hrs by LC-MS analysis
# Assay type: ADME
# run.parameters: 1000 µM

{"structure.notation": "CCCC[C@H](NC(=O)[C@@H]1CCCN1C(=O)CNC(=O)[C@H](CCCCN)NC(=O)[C@H](Cc1c[nH]cn1)NC(=O)[C@H](CO)NC(=O)[C@H](CC(C)C)N(C)C(=O)[C@H](CCCNC(=N)N)NC(=O)[C@@H]1CCCN1C(=O)[C@H](CCCNC(=N)N)NC(=O)[C@@H]1CCC(=O)N1)C(=O)NC(C)(C)C(=O)N[C@@H](Cc1ccc(Br)cc1)C(=O)O", "assay.target": "Neprilysin (Homo sapiens, UniProt P08473)", "Drug metabolism": "Metabolite_Notdetected"}
{"structure.notation": "CCCC[C@H](NC(=O)[C@@H]1CCCN1C(=O)CNC(=O)[C@H](CCCCN)NC(=O)[C@H](Cc1c[nH]cn1)NC(=O)[C@H](CO)NC(=O)[C@@H](CC(C)C)NC(=O)[C@H](CCCNC(=N)N)NC(=O)[C@@H]1CCCN1C(=O)[C@H](CCCNC(=N)N)NC(=O)[C@@H]1CCC(=O)N1)C(=O)NC(C)(C)C(=O)N[C@@H](Cc1ccc(Br)cc1)C(=O)O", "assay.target": "Neprilysin (Homo sapiens, UniProt P08473)", "Drug metabolism": "Metabolite_Notdetected"}

====

# assay.target: Neprilysin (Homo sapiens)
# test.details: Drug degradation in human plasma assessed as NEP-mediated degradation by measuring amount of apelin remaining after 60 mins by RP-HPLC analysis
# Type: ADME
# run.parameters: 1 h
Non-standard residues stand in square brackets, D forms with d. Residues, ends and D or L forms follow the SMILES beside them. Phe(4-Br) = N[C@@H](Cc1ccc(Br)cc1)C(=O)O; NMeL = CN[C@@H](CC(C)C)C(=O)O; Nle = CCCC[C@H](N)C(=O)O; Aib = CC(C)(N)C(=O)O
Reported Drug degradation by item:
Kindly provide the numeric value in % only, without the unit symbol.

{"compound": "CCCC[C@H](NC(=O)[C@@H]1CCCN1C(=O)CNC(=O)[C@H](CCCCN)NC(=O)[C@H](Cc1c[nH]cn1)NC(=O)[C@H](CO)NC(=O)[C@H](CC(C)C)NC(=O)[C@H](CCCNC(=N)N)NC(=O)[C@@H]1CCCN1C(=O)[C@H](CCCNC(=N)N)NC(=O)[C@@H]1CCC(=O)N1)C(=O)NC(C)(C)C(=O)N[C@@H](Cc1ccc(Br)cc1)C(=O)O", "Drug degradation (%)": 65}

Query: Which value of Drug degradation has been reported for "CCCC[C@H](NC(=O)[C@@H]1CCCN1C(=O)CNC(=O)[C@H](CCCCN)NC(=O)[C@H](Cc1c[nH]cn1)NC(=O)[C@H](CO)NC(=O)[C@H](CC(C)C)NC(=O)[C@](C)(CCCNC(=N)N)NC(=O)[C@@H]1CCCN1C(=O)[C@H](CCCNC(=N)N)NC(=O)[C@@H]1CCC(=O)N1)C(=O)NC(C)(C)C(=O)N[C@@H](Cc1ccc(Br)cc1)C(=O)O" in the records?
Reply: 62

Query: Which value of Drug degradation has been reported for CCCC[C@H](NC(=O)[C@@H]1CCCN1C(=O)CNC(=O)[C@H](CCCCN)NC(=O)[C@H](Cc1c[nH]cn1)NC(=O)[C@H](CO)NC(=O)[C@H](CC(C)C)N(C)C(=O)[C@H](CCCNC(=N)N)NC(=O)[C@@H]1CCCN1C(=O)[C@H](CCCNC(=N)N)NC(=O)[C@H](CCC(N)=O)NC(=O)[C@H](CCCNC(=N)N)NC(=O)[C@H](CCCNC(=N)N)NC(=O)[C@H](Cc1ccccc1)NC(=O)[C@@H](N)CCCCN)C(=O)NC(C)(C)C(=O)N[C@@H](Cc1ccc(Br)cc1)C(=O)O (H-KFRRQRPR[NMeL]SHKGP[Nle][Aib][Phe(4-Br)]-OH) in the records?
Reply: 47

====

# assay.target: Neprilysin (Homo sapiens)
# test.details: Drug degradation in human plasma assessed as NEP-mediated degradation by measuring amount of apelin remaining after 60 mins by RP-HPLC analysis
# Assay type: ADME
# run.parameters: 1 h
Starred links: 1 amine or outer side, 2 acyl side, 3 side chain; linkers in the order of their positions; H or OH if unused. Non-standard residues stand in square brackets, D forms with d. Residues, ends and D or L forms follow the SMILES beside them. Phe(4-Br) = N[C@@H](Cc1ccc(Br)cc1)C(=O)O; X1 = N=C(N)NCCCN(N[*:1])C(=O)[*:2]; azaLeu = CC(C)CN(N[*:1])C(=O)[*:2]; αMeR = C[C@](N)(CCCNC(=N)N)C(=O)O; pGlu = O=C1CC[C@@H](C(=O)O)N1; Nle = CCCC[C@H](N)C(=O)O; Aib = CC(C)(N)C(=O)O
Mark 0 (no) for Drug degradation values under 60%, and 1 (yes) for everything at or above.

{"compound": "CSCC[C@H](NC(=O)[C@@H]1CCCN1C(=O)CNC(=O)[C@H](CCCCN)NC(=O)[C@H](Cc1cnc[nH]1)NC(=O)[C@H](CO)NC(=O)[C@H](CC(C)C)NC(=O)[C@H](CCCNC(=N)N)NC(=O)[C@@H]1CCCN1C(=O)[C@H](CCCNC(=N)N)NC(=O)[C@@H]1CCC(=O)N1)C(=O)N1CCC[C@H]1C(=O)N[C@@H](Cc1ccccc1)C(=O)O", "label.value": "0 (no)"}
{"compound": "CCCC[C@H](NC(=O)[C@@H]1CCCN1C(=O)CNC(=O)[C@H](CCCCN)NC(=O)[C@H](Cc1c[nH]cn1)NC(=O)[C@H](CO)NC(=O)N(CC(C)C)NC(=O)[C@H](CCCNC(=N)N)NC(=O)[C@@H]1CCCN1C(=O)[C@H](CCCNC(=N)N)NC(=O)[C@H](CCC(N)=O)NC(=O)[C@H](CCCNC(=N)N)NC(=O)[C@H](CCCNC(=N)N)NC(=O)[C@H](Cc1ccccc1)NC(=O)[C@@H](N)CCCCN)C(=O)NC(C)(C)C(=O)N[C@@H](Cc1ccc(Br)cc1)C(=O)O (H-KFRRQRPR[azaLeu]SHKGP[Nle][Aib][Phe(4-Br)]-OH)", "label.value": "1 (yes)"}
{"compound": "CCCC[C@H](NC(=O)[C@@H]1CCCN1C(=O)CNC(=O)[C@H](CCCCN)NC(=O)[C@H](Cc1c[nH]cn1)NC(=O)[C@H](CO)NC(=O)[C@H](CC(C)C)NC(=O)[C@](C)(CCCNC(=N)N)NC(=O)[C@@H]1CCCN1C(=O)[C@H](CCCNC(=N)N)NC(=O)[C@H](CCC(N)=O)NC(=O)[C@H](CCCNC(=N)N)NC(=O)[C@H](CCCNC(=N)N)NC(=O)[C@H](Cc1ccccc1)NC(=O)[C@@H](N)CCCCN)C(=O)NC(C)(C)C(=O)N[C@@H](Cc1ccc(Br)cc1)C(=O)O (H-KFRRQRP[αMeR]LSHKGP[Nle][Aib][Phe(4-Br)]-OH)", "label.value": "0 (no)"}
{"compound": "CCCC[C@H](NC(=O)[C@@H]1CCCN1C(=O)CNC(=O)[C@H](CCCCN)NC(=O)[C@H](Cc1c[nH]cn1)NC(=O)[C@H](CO)NC(=O)[C@](C)(CC(C)C)NC(=O)[C@H](CCCNC(=N)N)NC(=O)[C@@H]1CCCN1C(=O)[C@H](CCCNC(=N)N)NC(=O)[C@@H]1CCC(=O)N1)C(=O)NC(C)(C)C(=O)N[C@@H](Cc1ccc(Br)cc1)C(=O)O", "label.value": "0 (no)"}
{"compound": "CCCC[C@H](NC(=O)[C@@H]1CCCN1C(=O)CNC(=O)[C@H](CCCCN)NC(=O)[C@H](Cc1c[nH]cn1)NC(=O)[C@H](CO)NC(=O)N(CC(C)C)NC(=O)[C@H](CCCNC(=N)N)NC(=O)[C@@H]1CCCN1C(=O)[C@H](CCCNC(=N)N)NC(=O)[C@@H]1CCC(=O)N1)C(=O)NC(C)(C)C(=O)N[C@@H](Cc1ccc(Br)cc1)C(=O)O", "label.value": "0 (no)"}
{"compound": "CCCC[C@H](NC(=O)[C@@H]1CCCN1C(=O)CNC(=O)[C@H](CCCCN)NC(=O)[C@H](Cc1c[nH]cn1)NC(=O)[C@H](CO)NC(=O)[C@H](CC(C)C)NC(=O)N(CCCNC(=N)N)NC(=O)[C@@H]1CCCN1C(=O)[C@H](CCCNC(=N)N)NC(=O)[C@@H]1CCC(=O)N1)C(=O)NC(C)(C)C(=O)N[C@@H](Cc1ccc(Br)cc1)C(=O)O ([pGlu]RP[X1]LSHKGP[Nle][Aib][Phe(4-Br)]-OH)", "label.value": "0 (no)"}

Query: State whether the measured Drug degradation reaches 60%, counting equality as reaching it, for CCCC[C@H](NC(=O)[C@@H]1CCCN1C(=O)CNC(=O)[C@H](CCCCN)NC(=O)[C@H](Cc1c[nH]cn1)NC(=O)[C@H](CO)NC(=O)[C@@H](CC(C)C)NC(=O)[C@H](CCCNC(=N)N)NC(=O)[C@@H]1CCCN1C(=O)[C@H](CCCNC(=N)N)NC(=O)[C@H](CCC(N)=O)NC(=O)[C@H](CCCNC(=N)N)NC(=O)[C@H](CCCNC(=N)N)NC(=O)[C@H](Cc1ccccc1)NC(=O)[C@@H](N)CCCCN)C(=O)NC(C)(C)C(=O)N[C@@H](Cc1ccc(Br)cc1)C(=O)O (H-KFRRQRPR[dL]SHKGP[Nle][Aib][Phe(4-Br)]-OH)
Reply: 1 (yes)

Query: State whether the measured Drug degradation reaches 60%, counting equality as reaching it, for "CSCC[C@H](NC(=O)[C@@H]1CCCN1C(=O)CNC(=O)[C@H](CCCCN)NC(=O)[C@H](Cc1cnc[nH]1)NC(=O)[C@H](CO)NC(=O)[C@H](CC(C)C)NC(=O)[C@H](CCCNC(=N)N)NC(=O)[C@@H]1CCCN1C(=O)[C@H](CCCNC(=N)N)NC(=O)[C@H](CCC(N)=O)NC(=O)[C@H](CCCNC(=N)N)NC(=O)[C@H](CCCNC(=N)N)NC(=O)[C@H](Cc1ccccc1)NC(=O)[C@@H](N)CCCCN)C(=O)N1CCC[C@H]1C(=O)N[C@@H](Cc1ccccc1)C(=O)O"
Reply: 0 (no)
